# System: HCC1937
# experimental details: normalised response (% of control), CellTox Green; higher = less cell death (100 = DMSO, 0 = benzethonium chloride kill control)
# particulars: incubation time: 72 h
Entries and their normalised response values follow.
property label: normalised response (%)

>>> df
                                   compound  study_target       property_label  reported_result
0  CCCCCCCCCCCCCCCCCCOP(=O)([O-])OC1CC[N+](C)(C)CC1 [Perifosine] (25 nM)       HCC1937  normalised response               88
1  C[C@@H](Oc1cc(-c2cnn(C3CCNCC3)c2)cnc1N)c1c(Cl)ccc(F)c1Cl [Crizotinib] (1000 nM)       HCC1937  normalised response               87
2  N[C@@H](CSC(c1ccccc1)(c1ccccc1)c1ccccc1)C(=O)O [S-trityl-L-cysteine] (4000 nM)       HCC1937  normalised response             85.1
3  CC1(C)NC(=O)N(c2ccc([N+](=O)[O-])c(C(F)(F)F)c2)C1=O [Nilutamide] (10000 nM)       HCC1937  normalised response             92.1
